TARGET_UNDER_TEST: Human cGAS (Homo sapiens (Human), UniProt Q8N884)
Sequence (Q8N884 whole entry): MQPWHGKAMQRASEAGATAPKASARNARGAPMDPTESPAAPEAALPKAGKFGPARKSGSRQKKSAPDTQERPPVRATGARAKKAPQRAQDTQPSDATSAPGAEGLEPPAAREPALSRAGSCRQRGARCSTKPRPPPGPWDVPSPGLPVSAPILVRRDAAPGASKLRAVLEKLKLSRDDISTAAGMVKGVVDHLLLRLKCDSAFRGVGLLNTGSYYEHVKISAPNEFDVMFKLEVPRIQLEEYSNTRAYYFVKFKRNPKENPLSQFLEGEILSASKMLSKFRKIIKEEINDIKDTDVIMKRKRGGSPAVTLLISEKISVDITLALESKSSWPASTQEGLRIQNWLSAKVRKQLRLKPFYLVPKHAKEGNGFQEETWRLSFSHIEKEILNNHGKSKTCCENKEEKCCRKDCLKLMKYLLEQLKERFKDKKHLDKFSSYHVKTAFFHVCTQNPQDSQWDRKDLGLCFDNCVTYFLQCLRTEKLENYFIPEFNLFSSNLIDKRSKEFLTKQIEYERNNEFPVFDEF
pIC50: −log10 of the molar value.
Short version: pIC50 at least 6 is criterion met, less is criterion not met.

Solved entries:
> print(dat)
                            chemical.smiles  category.label
1  COc1nc2c3c([nH]c2c(F)c1Cl)CCN(C(=O)CO)C3   criterion met
2  Cn1ccc(-c2nc(Cl)c(Cl)c3[nH]c4c(c23)CN(C(=O)CO)CC4)n1   criterion met

Form field: pIC50 at least 6? Entry: Cn1ccc(-c2cc(Cl)c(F)c3nn4c(c23)CN(C(=O)CO)CC4)n1
criterion met

Same for CCOc1nc2c3c([nH]c2c(Cl)c1Cl)CCN(C(=O)CO)C3
criterion not met

Same for COCC(=O)N1CCc2[nH]c3c(Cl)c(Cl)nc(-c4ccn(C)n4)c3c2C1
criterion met

Same for Cc1nnc(-c2cc(Cl)c(F)c3nn4c(c23)CN(C(=O)CO)CC4)o1
criterion not met
